test: Antiproliferative activity against human HL60 cells measured after 3 days by MTS assay; format: functional, cell-based; details: HL-60, 72 h
pIC50: −log10 of the molar value.
Classification field: TRUE = pIC50 at or over 5; FALSE = pIC50 under 5.

# given_smiles, discrete_label
measured = [
    ("O=c1cc(N2CCOCC2)oc2c(-c3ccccc3)cccc12", "FALSE"),
    ("CCOC(=O)c1c(-c2ccccc2)cn2c1c(-c1ccc(CN3CCC(c4nc5ccc(F)cc5[nH]4)CC3)cc1)nc1ccccc12", "FALSE"),
    ("CCOC(=O)c1c(-c2ccccc2)cn2c1c(-c1ccc(CN3CCC(n4c(=O)[nH]c5ccccc54)CC3)cc1)nc1ccccc12", "FALSE"),
]

Request: Could you verify whether the entry CCOC(=O)c1cn2c(c(-c3ccc(CN4CCC(c5nnc(-c6ccccn6)[nH]5)CC4)cc3)nc3ccccc32)c1-c1ccccc1 shows pIC50 of no less than 5?
Response: TRUE

Request: Could you verify whether the entry CCOC(=O)c1cn2c(c(-c3ccc(CN4CCC(n5c(=O)[nH]c6ccccc65)CC4)cc3)nc3ccccc32)c1-c1ccccc1 shows pIC50 of no less than 5?
Response: TRUE

Request: Could you verify whether the entry O=c1[nH]c2ccccc2n1C1CCN(Cc2ccc(-c3nc4ccccc4n4cc5ccccc5c34)cc2)CC1 shows pIC50 of no less than 5?
Response: TRUE

Request: Could you verify whether the entry CCOC(=O)c1cc2c(-c3ccc(CN4CCC(c5nnc(-c6ccccn6)[nH]5)CC4)cc3)nc3ccccc3n2c1-c1ccccc1 shows pIC50 of no less than 5?
Response: TRUE

---

test system: Jurkat; assay: Antiproliferative activity against human Jurkat cells measured after 3 days by MTS assay; assay type: functional, cell-based; conditions: 72 h
# true (1) = IC50 below 5 µM (exclusive); false (0) = IC50 at/above 5 µM

Answered examples (3):
# given_smiles, discrete_label
data = [
    ("CCOC(=O)c1cc(-c2ccccc2)n2c1c(-c1ccc(CN3CCC(c4nc5ccc(F)cc5[nH]4)CC3)cc1)nc1ccccc12", "false (0)"),
    ("CCOC(=O)c1c(-c2ccccc2)cn2c1c(-c1ccc(CN3CCC(n4c(=O)[nH]c5ccccc54)CC3)cc1)nc1ccccc12", "false (0)"),
    ("CCOC(=O)c1cn2c(c(-c3ccc(CN4CCC(n5c(=O)[nH]c6ccccc65)CC4)cc3)nc3ccccc32)c1-c1ccccc1", "true (1)"),
]

Request: Is IC50 strictly under 5 µM for the entry CCOC(=O)c1cc(-c2ccccc2)n2c1c(-c1ccc(CN3CCC(n4c(=O)[nH]c5ccccc54)CC3)cc1)nc1ccccc12 ?
Response: true (1)

Request: Is IC50 strictly under 5 µM for the entry CCOC(=O)c1cc2c(-c3ccc(CN4CCC(c5nnc(-c6ccccn6)[nH]5)CC4)cc3)nc3ccccc3n2c1-c1ccccc1 ?
Response: true (1)

---

tested on: PBMC; assay: Cytotoxicity against PHA induced human PBMC after 3 days by MTS assay; type: cell-based; details: 72 h
recorded_endpoint: pIC50
Value format note: pIC50 is -log10 of concentration (mol/L); just state the number.

A selection of reference data follows.
# given_smiles, pIC50
measured = [
    ("CCOC(=O)c1cc2c(-c3ccc(CN4CCC(c5nc6ccc(F)cc6[nH]5)CC4)cc3)nc3ccccc3n2c1-c1ccccc1", 4.89),
    ("CCOC(=O)c1cn2c(c(-c3ccc(CN4CCC(c5nnc(-c6ccccn6)[nH]5)CC4)cc3)nc3ccccc32)c1-c1ccccc1", 5.10),
    ("CCOC(=O)c1c(-c2ccccc2)cn2c1c(-c1ccc(CN3CCC(c4nc5ccc(F)cc5[nH]4)CC3)cc1)nc1ccccc12", 4.85),
]

Fill in: PBMC pIC50 for CCOC(=O)c1cc(-c2ccccc2)n2c1c(-c1ccc(CN3CCC(c4nnc(-c5ccccn5)[nH]4)CC3)cc1)nc1ccccc12 = 4.30

Fill in: PBMC pIC50 for CCOC(=O)c1c(-c2ccccc2)cn2c1c(-c1ccc(CN3CCC(c4nnc(-c5ccccn5)[nH]4)CC3)cc1)nc1ccccc12 = 4.80

Fill in: PBMC pIC50 for CCOC(=O)c1cn2c(c(-c3ccc(CN4CCC(n5c(=O)[nH]c6ccccc65)CC4)cc3)nc3ccccc32)c1-c1ccccc1 = 4.38

Fill in: PBMC pIC50 for CCOC(=O)c1cc(-c2ccccc2)n2c1c(-c1ccc(CN3CCC(c4nc5ccc(F)cc5[nH]4)CC3)cc1)nc1ccccc12 = 4.30

Fill in: PBMC pIC50 for CCOC(=O)c1cc2c(-c3ccc(CN4CCC(c5nnc(-c6ccccn6)[nH]5)CC4)cc3)nc3ccccc3n2c1-c1ccccc1 = 4.92

---

test: Antiproliferative activity against human HL60 cells measured after 3 days by MTS assay; type: functional, cell-based; settings: HL-60, 72 h
Here the recorded IC50 is given for each entry.
Give the value in µM but do not write µM after it.

A selection of reference data follows.
# given_smiles, IC50 / µM
data = [
    ("CCOC(=O)c1cc(-c2ccccc2)n2c1c(-c1ccc(CN3CCC(c4nnc(-c5ccccn5)[nH]4)CC3)cc1)nc1ccccc12", 24),
    ("CCOC(=O)c1cc(-c2ccccc2)n2c1c(-c1ccc(CN3CCC(n4c(=O)[nH]c5ccccc54)CC3)cc1)nc1ccccc12", 6),
    ("O=c1[nH]c2ccccc2n1C1CCN(Cc2ccc(-c3nc4ccccc4n4ccc(-c5ccccc5)c34)cc2)CC1", 2),
]

Quick note, IC50 for O=c1[nH]c2ccccc2n1C1CCN(Cc2ccc(-c3nc4cc5[nH]cnc5cc4nc3-c3ccccc3)cc2)CC1 landed at 5.5

Quick note, IC50 for CCOC(=O)c1cc2c(-c3ccc(CN4CCC(c5nc6ccc(F)cc6[nH]5)CC4)cc3)nc3ccccc3n2c1-c1ccccc1 landed at 3

Quick note, IC50 for CCOC(=O)c1cc(-c2ccccc2)n2c1c(-c1ccc(CN3CCC(c4nc5ccc(F)cc5[nH]4)CC3)cc1)nc1ccccc12 landed at 8

---

experiment: Antiproliferative activity against human U266 cells measured after 3 days by MTS assay; type: functional, cell-based; settings: U-266, 72 h
recorded_endpoint: pIC50
Value format note: pIC50 is -log10 of concentration (mol/L); just state the number.

A selection of reference data follows.
# given_smiles, pIC50
data = [
    ("CCOC(=O)c1cc2c(-c3ccc(CN4CCC(c5nnc(-c6ccccn6)[nH]5)CC4)cc3)nc3ccccc3n2c1-c1ccccc1", 5.52),
    ("CCOC(=O)c1c(-c2ccccc2)cn2c1c(-c1ccc(CN3CCC(c4nc5ccc(F)cc5[nH]4)CC3)cc1)nc1ccccc12", 5.46),
]

Now look at this one.
Quick note, pIC50 for O=c1cc(N2CCOCC2)oc2c(-c3ccccc3)cccc12 landed at 4.34

---

Here the recorded IC50 is given for each entry.
assay: Antiproliferative activity against human U266 cells measured after 3 days by MTS assay; type: functional, cell-based; details: U-266, 72 h
Give the value in µM but do not write µM after it.

# given_smiles, readout_units, IC50
records = [
    ("CCOC(=O)c1cn2c(c(-c3ccc(CN4CCC(n5c(=O)[nH]c6ccccc65)CC4)cc3)nc3ccccc32)c1-c1ccccc1", "µM", 10),
    ("CCOC(=O)c1cn2c(c(-c3ccc(CN4CCC(c5nnc(-c6ccccn6)[nH]5)CC4)cc3)nc3ccccc32)c1-c1ccccc1", "µM", 5),
    ("CCOC(=O)c1cc(-c2ccccc2)n2c1c(-c1ccc(CN3CCC(c4nnc(-c5ccccn5)[nH]4)CC3)cc1)nc1ccccc12", "µM", 8),
]

Now look at this one.
Quick note, IC50 for CCOC(=O)c1cc2c(-c3ccc(CN4CCC(c5nc6ccc(F)cc6[nH]5)CC4)cc3)nc3ccccc3n2c1-c1ccccc1 landed at 3

---

tested on: Jurkat; experiment: Antiproliferative activity against human Jurkat cells measured after 3 days by MTS assay; format: functional, cell-based; details: 72 h
recorded_endpoint: pIC50
Value format note: pIC50 is -log10 of concentration (mol/L); just state the number.

A selection of reference data follows.
# compound, obs_value
rows = [
    ("O=c1cc(N2CCOCC2)oc2c(-c3ccccc3)cccc12 [LY-294002]", 4.66),
    ("CCOC(=O)c1c(-c2ccccc2)cn2c1c(-c1ccc(CN3CCC(c4nc5ccc(F)cc5[nH]4)CC3)cc1)nc1ccccc12", 5.30),
    ("O=c1[nH]c2ccccc2n1C1CCN(Cc2ccc(-c3nc4cc5[nH]cnc5cc4nc3-c3ccccc3)cc2)CC1", 5.46),
    ("CCOC(=O)c1c(-c2ccccc2)cn2c1c(-c1ccc(CN3CCC(c4nnc(-c5ccccn5)[nH]4)CC3)cc1)nc1ccccc12", 5.30),
    ("CCOC(=O)c1cc(-c2ccccc2)n2c1c(-c1ccc(CN3CCC(c4nnc(-c5ccccn5)[nH]4)CC3)cc1)nc1ccccc12", 5.30),
    ("CCOC(=O)c1cn2c(c(-c3ccc(CN4CCC(c5nnc(-c6ccccn6)[nH]5)CC4)cc3)nc3ccccc32)c1-c1ccccc1", 5.70),
    ("CCOC(=O)c1cc2c(-c3ccc(CN4CCC(n5c(=O)[nH]c6ccccc65)CC4)cc3)nc3ccccc3n2c1-c1ccccc1", 5.19),
]

Now look at this one.
Quick note, pIC50 for CCOC(=O)c1cc2c(-c3ccc(CN4CCC(c5nc6ccc(F)cc6[nH]5)CC4)cc3)nc3ccccc3n2c1-c1ccccc1 landed at 5.46
